Target: T1, human TNFR2 on the surface of CHO-TNFR2 cells (human, UniProt P20333 23-461)
T1 construct: whole, on cells
T1 sequence (looked up): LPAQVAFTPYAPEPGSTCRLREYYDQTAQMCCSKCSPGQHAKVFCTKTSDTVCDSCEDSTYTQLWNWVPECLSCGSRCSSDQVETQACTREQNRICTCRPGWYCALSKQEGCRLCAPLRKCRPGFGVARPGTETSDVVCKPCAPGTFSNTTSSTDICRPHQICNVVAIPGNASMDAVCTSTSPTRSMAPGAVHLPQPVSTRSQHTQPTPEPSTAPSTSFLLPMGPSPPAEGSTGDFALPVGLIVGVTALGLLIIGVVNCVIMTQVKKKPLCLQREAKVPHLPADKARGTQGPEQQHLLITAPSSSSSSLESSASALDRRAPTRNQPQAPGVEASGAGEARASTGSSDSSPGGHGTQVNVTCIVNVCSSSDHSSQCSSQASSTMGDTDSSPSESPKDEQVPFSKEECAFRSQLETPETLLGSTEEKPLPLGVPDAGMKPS
Experiment: competition flow cytometry on CHO-TNFR2 cells, competitor TNFα-biotin; area under the MFI curve
Design: unit not given beside the values
Catalogue of AUC values
Just the number, please.

[in] # return recorded AUC for entry 001-Hu1 (antibody, V domains shown, Humanized form of #001; also called VH1 + VL1) VH: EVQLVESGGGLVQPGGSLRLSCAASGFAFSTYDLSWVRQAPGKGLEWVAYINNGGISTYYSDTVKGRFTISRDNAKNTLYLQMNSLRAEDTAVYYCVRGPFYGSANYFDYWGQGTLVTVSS VL: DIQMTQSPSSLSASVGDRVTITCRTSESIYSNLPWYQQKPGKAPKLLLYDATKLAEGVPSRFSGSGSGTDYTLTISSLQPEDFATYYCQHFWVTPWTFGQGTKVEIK
[out] 8840

[in] Determine from records and report AUC for 001-Hu4 (antibody, V domains shown, Humanized form of #001; also called VH2 + VL4) VH: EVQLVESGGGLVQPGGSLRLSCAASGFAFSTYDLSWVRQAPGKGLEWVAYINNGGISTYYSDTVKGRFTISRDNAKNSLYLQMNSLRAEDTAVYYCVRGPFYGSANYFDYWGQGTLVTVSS VL: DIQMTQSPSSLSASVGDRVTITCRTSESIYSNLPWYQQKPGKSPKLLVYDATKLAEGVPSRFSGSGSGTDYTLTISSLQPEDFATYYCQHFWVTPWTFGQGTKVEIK
[out] 10200

Further cases:
[in] Complete the entry with AUC for 224-Hu6 (antibody, V domains shown, Humanized form of #224; also called VH8 + VL7) VH: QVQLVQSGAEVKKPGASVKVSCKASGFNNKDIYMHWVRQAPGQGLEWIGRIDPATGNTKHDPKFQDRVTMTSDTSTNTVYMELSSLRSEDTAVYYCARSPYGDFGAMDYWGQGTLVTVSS VL: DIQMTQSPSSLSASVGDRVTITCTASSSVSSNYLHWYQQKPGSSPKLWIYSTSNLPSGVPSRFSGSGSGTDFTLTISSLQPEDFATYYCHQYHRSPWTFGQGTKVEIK
[out] 13900

Just for reference, patent US20240109974A1 is where these values come from.
